Tested on: HL-60(TB) leukemia
Test: NCI tumour cell line growth inhibition, 48 h; in the data active means GI50 below about 0.43 µM; inactive means the rest
Outcomes: True for active, False for inactive

>>> label_value("N#Cc1ccc(O)c(C2=NCC(c3cccc(Oc4ccccc4)c3)O2)c1 (centres undefined)")
"False"
>>> label_value("N#Cc1c(-c2ccc(F)cc2)nc(N/N=C/c2c[nH]c3ccccc23)nc1N1CCOCC1")
"False"
>>> label_value("CC(C)(C)OC(=O)N1CCc2c(sc3ncnc(N/N=C/c4cccc5ccccc45)c23)C1")
"False"
>>> label_value("COc1cc(C2=NOC(c3cc(OC)c(OC)c(OC)c3)C2)ccc1OCCCCOc1cc2c(cc1OC)C(=O)N1CCC[C@H]1C=N2 (some centres undefined)")
"True"
>>> label_value("O=c1/c(=C/c2ccco2)sc2nc3ccccc3n12")
"False"
>>> label_value("CC[C@]1(O)C[C@@H]2CN(CCc3c([nH]c4ccccc34)[C@@](C(=O)OC)(c3cc4c(cc3OC)N(C)[C@H]3[C@@](O)(C(=O)OC)[C@H](OC(C)=O)[C@]5(CC)C=CCN6CC[C@]43[C@@H]65)C2)C1")
"True"
>>> label_value("Oc1ccc(NCc2nc3ccccc3[nH]2)cc1")
"False"
>>> label_value("CC(=O)OC[C@]1(C)C=C2C(=O)[C@](C)(O)C3(CC3)C(C)=C2[C@H]1O")
"True"
>>> label_value("O=C1c2cc(Cl)ccc2S(=O)(=O)c2c(NCCCNCCO)nc3ccccc3c21")
"False"
>>> label_value("CCOc1cc2c(Cl)ncnc2c(OCC)c1OCC")
"False"
>>> label_value("NC(=O)c1ccc(I)c(N)c1")
"False"
>>> label_value("COc1cc(C2NC(=O)c3ccccc3N2)ccc1OCCCCCOc1c(OC)cc(C2=NOC(c3cc(OC)c(OC)c(OC)c3)C2)cc1OC (centres undefined)")
"False"
>>> label_value("CCOC(=O)[C]1([Bi]([CH3])[CH3])N=NC(C(=O)OC)=C1C(=O)OC (centres undefined)")
"False"
>>> label_value("O=c1[nH]ncc(Br)c1Br")
"False"
>>> label_value("CC1=CC(=Nc2ccc(N(CCCl)CCCl)cc2)C=C(C)C1=O")
"True"
>>> label_value("CCC[CH2][Sn]1([CH2]CCC)[O]Cc2nc(C)ccc2[O]1")
"False"
>>> label_value("C=C1C(=O)O[C@H]2[C@H]1CC/C(COC(=O)c1ccc3ccccc3c1)=C\\CC[C@@]1(C)O[C@@H]21")
"False"
>>> label_value("N#CSc1c[nH]c2cccc(/C=C/C(=O)/C=C(/C=C/c3cccc4[nH]cc(SC#N)c34)OB(F)F)c12")
"True"
>>> label_value("COc1ccc(-c2cnnc3c(-c4cccc(C(F)(F)F)c4)cnn23)cc1")
"False"

###

Test system: ACHN renal
Experiment: NCI tumour cell line growth inhibition, 48 h
Each record here notes measured TGI.
assay-metric: TGI

>>> observed("CCOn1c(C2(CC3CCN(C(=O)c4ccccc4)CC3)OCCO2)cc2ccccc21")
"27.9 µM"
>>> observed("COc1cc([N+](=O)[O-])cc2c3c(n(C)c12)[C@@]1(C)CCC2c4ccc(OCc5ccccc5)cc4CCC2C1C3 (stereo partly specified)")
"> 100 µM"
>>> observed("O=c1c2ccccc2nc(Nc2cccc(Cl)c2)n1/N=C/C=C/c1ccccc1")
"> 100 µM"
>>> observed("N#Cc1c(-c2ccc(F)cc2)nc(N/N=C/c2c[nH]c3ccccc23)nc1N1CCOCC1")
"30.7 µM"
>>> observed("NC1CNC(=O)c2c(Cl)sc(Cl)c21 (stereo unspecified)")
"> 100 µM"
>>> observed("CC(C)(C)C1CCC2(CC1)c1[nH]c3ccccc3c1C1(CCC(C(C)(C)C)CC1)c1[nH]c3ccccc3c12 (stereo unspecified)")
"> 100 µM"
>>> observed("O=c1c(-c2ccc(Cl)cc2)nnc2n(Cc3ccccc3)c3ccccc3n12")
"> 100 µM"
>>> observed("Cc1ccc(NC(=O)c2cccc(N(C)C)c2)cc1NC(=O)c1ccc(O)cc1")
"> 100 µM"
>>> observed("CC1(C(=O)O)CCCC1C(=O)O (stereo unspecified)")
"> 100 µM"
>>> observed("COc1ccc(/C(COc2c(-c3ccccc3)oc3ccccc3c2=O)=N\\O)cc1")
"26.3 µM"
>>> observed("COc1ccc(/C=C/CN(C)CCc2ccccc2)cc1OC")
"> 100 µM"
>>> observed("COc1cc2c(/C=C3/C(=O)Nc4ccccc43)c(Cl)[nH]c2cc1C")
"17.4 µM"
>>> observed("CCOC(=O)[C]1([Bi]([CH3])[CH3])N=NC(C(=O)OC)=C1C(=O)OC (stereo unspecified)")
"32.4 µM"
>>> observed("COc1cc(C2NC(=O)c3ccccc3N2)ccc1OCCCCCOc1c(OC)cc(C2=NOC(c3cc(OC)c(OC)c(OC)c3)C2)cc1OC (stereo unspecified)")
"> 100 µM"
>>> observed("Cn1c(=O)c2[nH]c(SCc3ccccn3)nc2n(C)c1=S")
"> 100 µM"
>>> observed("Cc1ccc2c(c1)[n+]([O-])c(N)n[n+]2[O-]")
"> 100 µM"
>>> observed("CC1(C)CNC(=O)C2(C=NC(C)(C)CNC(=O)C3(C=N1)CCCO3)CCCO2 (stereo unspecified)")
"> 10 µM"
>>> observed("COc1ccc2c(c1)CC1=C(O2)c2ccc(OC)cc2OC1")
"36.5 µM"
>>> observed("O=C1CSC(c2cccs2)N1c1nc2cc3sc(N4C(=O)CSC4c4cccs4)nc3cc2s1 (stereo unspecified)")
"> 50 µM"
>>> observed("CSc1nc2c(c(=O)n1C)N=C(c1ccccc1)[C@H](C(CC(=O)c1ccccc1)c1ccccc1)C(c1ccccc1)N2 (stereo partly specified)")
"> 100 µM"
>>> observed("Cc1nn(-c2cc(Cl)ccc2[N+](=O)[O-])c(C)c1Cl")
"> 100 µM"
